# Tested on: SF-295 CNS
# protocolSummary: NCI-60 one-dose screen, 48 h
# conditionParameters: 10 µM unless noted
Compounds without any hit were thinned out: in the full panel of roughly 83,000, 20% have a hit. Activity calls are given as the source filed them. How the source made its calls: active means growth percent below 10; inactive means the rest.
Please answer using one outcome listed in 1 (active), 0 (inactive)

The following compounds have reported results that may help.
>  <mol>
O=C(N/N=C/c1ccc(Cl)cc1)c1cc(-c2cc3ccccc3o2)nn1-c1ccccc1

>  <assignedLabel>
0

$$$$
>  <mol>
CO/C=C/C(=O)c1cc2cnc3c(=N)cc(NC(=O)C(C)C)c([nH]1)c23

>  <assignedLabel>
1

$$$$

Q) What call does the record list for `CC(=O)c1c(C)c2cnc(Nc3ccc(N4CCNCC4)cn3)nc2n(C2CCCC2)c1=O` ?
A) 0

Q) What call does the record list for `COc1cc2nccc(Oc3ccc(NC(=O)C4(C(=O)Nc5ccc(F)cc5)CC4)cc3)c2cc1OC` ?
A) 1
